- procedure text: BUP partition between octanol and aqueous ammonium sulfate at various pH
- Assay type: physicochemical
- run parameters: octanol/aqueous ammonium sulfate, pH 2; read-out: BUP octanol/(NH4)2(SO4) partition coefficient (converted)
quantity measured: logD
Note: the reply should be a number with no unit written.

Lookup: Param item = CCCCN1CCCCC1C(=O)Nc1c(C)cccc1C (stereo not shown) ; retrieve measured logD.
Found: 0.0253

====

- procedure text: BUP partition between octanol and aqueous ammonium sulfate at various pH
- Type: physicochemical
- run parameters: octanol/aqueous ammonium sulfate, pH 8; read-out: BUP octanol/(NH4)2(SO4) partition coefficient (converted)
quantity measured: logD
Note: the reply should be a number with no unit written.

Lookup: Param item = CCCCN1CCCCC1C(=O)Nc1c(C)cccc1C (stereo not shown) ; retrieve measured logD.
Found: 1.18

====

- procedure text: BUP partition between octanol and aqueous ammonium sulfate at various pH
- Assay type: physicochemical
- run parameters: octanol/aqueous ammonium sulfate, pH 4; read-out: BUP octanol/(NH4)2(SO4) partition coefficient (converted)
quantity measured: logD
Note: the reply should be a number with no unit written.

Lookup: Param item = CCCCN1CCCCC1C(=O)Nc1c(C)cccc1C (stereo not shown) ; retrieve measured logD.
Found: -0.42
